// MIC collected for S. aureus (SA) ATCC 259213

{"compound string": "CCCN(CCCOc1cc(/C=C/c2ccc(/C=C/c3cc(OCCCN(CCC)C(=N)C4CC4)cc(OCCCN(CCC)C(=N)C4CC4)c3)cc2)cc(OCCCN(CCC)C(=N)C2CC2)c1)C(=N)C1CC1", "tested on": "S. aureus (SA) ATCC 259213", "endpoint unit": "µg/mL", "MIC": 1}
{"compound string": "C(=C\\c1cc(OCCCNC2=NCCC2)cc(OCCCNC2=NCCC2)c1)/c1ccc(/C=C/c2cc(OCCCNC3=NCCC3)cc(OCCCNC3=NCCC3)c2)cc1", "tested on": "S. aureus (SA) ATCC 259213", "endpoint unit": "µg/mL", "MIC": 1}
{"compound string": "CCC(=N)N(CCCOc1cc(/C=C/c2ccc(/C=C/c3cc(OCCCN(C(=N)CC)C4CC4)cc(OCCCN(C(=N)CC)C4CC4)c3)cc2)cc(OCCCN(C(=N)CC)C2CC2)c1)C1CC1", "tested on": "S. aureus (SA) ATCC 259213", "endpoint unit": "µg/mL", "MIC": 1}
{"compound string": "N=C(CC1CC1)NCCCOc1cc(/C=C/c2ccc(/C=C/c3cc(OCCCNC(=N)CC4CC4)cc(OCCCNC(=N)CC4CC4)c3)cc2)cc(OCCCNC(=N)CC2CC2)c1", "tested on": "S. aureus (SA) ATCC 259213", "endpoint unit": "µg/mL", "MIC": 1}
{"compound string": "N=C(NCCCOc1cc(/C=C/c2ccc(/C=C/c3cc(OCCCNC(=N)C4CC4)cc(OCCCNC(=N)C4CC4)c3)cc2)cc(OCCCNC(=N)C2CC2)c1)C1CC1", "tested on": "S. aureus (SA) ATCC 259213", "endpoint unit": "µg/mL", "MIC": 0.5}

====

// MIC collected for Salmonella enterica Typhimurium (ST) ATCC 14028

{"compound string": "CCCN(CCCOc1cc(/C=C/c2ccc(/C=C/c3cc(OCCCN(CCC)C(=N)CC)cc(OCCCN(CCC)C(=N)CC)c3)cc2)cc(OCCCN(CCC)C(=N)CC)c1)C(=N)CC", "endpoint unit": "µg/mL", "MIC": 2}
{"compound string": "C(=C\\c1cc(OCCCNC2=NCCC2)cc(OCCCNC2=NCCC2)c1)/c1ccc(/C=C/c2cc(OCCCNC3=NCCC3)cc(OCCCNC3=NCCC3)c2)cc1", "endpoint unit": "µg/mL", "MIC": 2}
{"compound string": "N=C(NCCCOc1cc(/C=C/c2ccc(/C=C/c3cc(OCCCNC(=N)C4CC4)cc(OCCCNC(=N)C4CC4)c3)cc2)cc(OCCCNC(=N)C2CC2)c1)C1CC1", "endpoint unit": "µg/mL", "MIC": 1}
{"compound string": "N=C(CC1CC1)NCCCOc1cc(/C=C/c2ccc(/C=C/c3cc(OCCCNC(=N)CC4CC4)cc(OCCCNC(=N)CC4CC4)c3)cc2)cc(OCCCNC(=N)CC2CC2)c1", "endpoint unit": "µg/mL", "MIC": 2}
{"compound string": "C/N=C(\\C)NCCCOc1cc(/C=C/c2ccc(/C=C/c3cc(OCCCN/C(C)=N/C)cc(OCCCN/C(C)=N/C)c3)cc2)cc(OCCCN/C(C)=N/C)c1", "endpoint unit": "µg/mL", "MIC": 2}
{"compound string": "C/C(=N\\C1CC1)NCCCOc1cc(/C=C/c2ccc(/C=C/c3cc(OCCCN/C(C)=N/C4CC4)cc(OCCCN/C(C)=N/C4CC4)c3)cc2)cc(OCCCN/C(C)=N/C2CC2)c1", "endpoint unit": "µg/mL", "MIC": 2}
{"compound string": "CCC(=N)N(CCCOc1cc(/C=C/c2ccc(/C=C/c3cc(OCCCN(C(=N)CC)C4CC4)cc(OCCCN(C(=N)CC)C4CC4)c3)cc2)cc(OCCCN(C(=N)CC)C2CC2)c1)C1CC1", "endpoint unit": "µg/mL", "MIC": 2}
{"compound string": "CCCN(CCCOc1cc(/C=C/c2ccc(/C=C/c3cc(OCCCN(CCC)C(=N)C4CC4)cc(OCCCN(CCC)C(=N)C4CC4)c3)cc2)cc(OCCCN(CCC)C(=N)C2CC2)c1)C(=N)C1CC1", "endpoint unit": "µg/mL", "MIC": 2}
{"compound string": "CCC(=N)N(C)CCCOc1cc(/C=C/c2ccc(/C=C/c3cc(OCCCN(C)C(=N)CC)cc(OCCCN(C)C(=N)CC)c3)cc2)cc(OCCCN(C)C(=N)CC)c1", "endpoint unit": "µg/mL", "MIC": 2}
{"compound string": "CN(CCCOc1cc(/C=C/c2ccc(/C=C/c3cc(OCCCN(C)C(=N)C4CC4)cc(OCCCN(C)C(=N)C4CC4)c3)cc2)cc(OCCCN(C)C(=N)C2CC2)c1)C(=N)C1CC1", "endpoint unit": "µg/mL", "MIC": 1}
